Here the recorded inhibition of SDF-1-induced β-arrestin recruitment (BRET) is given for each entry.
biological target: human CXCR4 receptor (human, UniProt P61073 1-352); assay: cell-based or functional assay
Sequence (P61073 whole entry): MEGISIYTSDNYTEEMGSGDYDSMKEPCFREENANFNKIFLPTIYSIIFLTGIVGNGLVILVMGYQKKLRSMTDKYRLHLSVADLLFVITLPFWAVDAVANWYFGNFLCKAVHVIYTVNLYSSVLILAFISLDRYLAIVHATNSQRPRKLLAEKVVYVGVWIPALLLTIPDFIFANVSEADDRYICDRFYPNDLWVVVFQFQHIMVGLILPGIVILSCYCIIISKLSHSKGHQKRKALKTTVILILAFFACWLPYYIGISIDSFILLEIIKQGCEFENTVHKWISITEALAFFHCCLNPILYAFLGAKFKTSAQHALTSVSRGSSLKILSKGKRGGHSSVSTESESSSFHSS

# binder, reported.measurement
measured = [
    ("humanized antibody Hz515H7 VH1 D76N VL2.3 (antibody, human IgG1, kappa, V domains shown, human IgG1/kappa format; also called hz515H7VL2.3) VH: EVQLVESGGGLVQPGRSLRLSCTASGFTFTDNYMSWVRQAPGKGLEWVGFIRNKANGYTTEYAASVKGRFTISRDNSKSIAYLQMNSLKTEDTAVYYCARDVGSNYFDYWGQGTLVTVSS VL: DIVMTQSPDSLAVSLGERATMSCKSSQSLFNSRTRKNYLAWYQQKPGQPPKLLIYWASARDSGVPDRFTGSGSETYFTLTISSLQAEDLAVYYCMQSFNLRTFGQGTKVEIKR", "~71%"),
]

**Q:** Quick one: inhibition of SDF-1-induced β-arrestin recruitment (BRET) of humanized antibody Hz515H7 VH1 D76N VL2.1 (antibody, human IgG1, kappa, V domains shown, human IgG1/kappa format; also called hz515H7VL2.1) VH: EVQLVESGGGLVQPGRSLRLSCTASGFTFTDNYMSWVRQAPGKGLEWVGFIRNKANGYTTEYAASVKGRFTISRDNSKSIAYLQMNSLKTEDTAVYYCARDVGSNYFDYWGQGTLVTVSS VL: DIVMTQSPDSLAVSLGERATMSCKSSQSLFNSRTRKNYLAWYQQKPGQPPKLLIYWASARDSGVPDRFSGSGSETYFTLTISRVQAEDLAVYYCMQSFNLRTFGQGTKVEIKR ?
**A:** ~81%

**Q:** Quick one: inhibition of SDF-1-induced β-arrestin recruitment (BRET) of murine monoclonal antibody 515H7 (antibody, V domains shown) VH: EVNLVESGGGLVQPGGSLRLSCATSGFTFTDNYMSWVRQPPGKALEWLGFIRNKANGYTTDYSASVRGRFTISRDNSQSILYLQMNALRAEDSATYYCARDVGSNYFDYWGQGTTLTVSS VL: DIVMSQSPSSLAVSAGEKVTMSCKSSQSLFNSRTRKNYLAWYQQKPGQSPKLLIYWASARDSGVPARFTGSGSETYFTLTISRVQAEDLAVYYCMQSFNLRTFGQGTKVEIK ?
**A:** ~95%
